The values you see were collected from PubChem BioAssay (NCI).

- Test system: OVCAR-4 ovarian
- assay.summary: NCI tumour cell line growth inhibition, 48 h
property.label: TGI (µM)
The figure you give is taken to be in µM; do not add the unit.

As a guide, the following entries are already answered.
O=C(CSc1nc2ccc([N+](=O)[O-])cc2[nH]1)Nc1ccc([N+](=O)[O-])cc1 ... 29.3
O=C1NC(=N[C@@H]2C[C@H]2c2ccccc2)S/C1=C\c1ccc2ncccc2c1 ... 6.71
CC(=O)OCc1cc(OC(C)=O)c2cc3c(OC(C)=O)cccc3c(OC(C)=O)c2c1 ... 59.3

--- query ---
Task item: Need TGI, item "O=C(CSc1nc(-c2ccccc2)c(-c2ccccc2)[nH]1)N/N=C/c1ccc([N+](=O)[O-])cc1"
Reply: 58.8

====

- System: MOLT-4 leukemia
- assay.summary: NCI tumour cell line growth inhibition, 48 h
property.label: TGI

Past entries and their recorded results:
CSc1nc(SC)c2cnn(-c3ccnc4cc(Cl)ccc34)c2n1 ... > 89.6 µM
O=C([CH-]C(=O)c1ccccc1)c1ccccc1.O=C([CH-]C(=O)c1ccccc1)c1ccccc1.[CH2-]CCC.[CH2-]CCC.[Sn+4] ... 0.754 µM

Please turn your attention to the following entry.
Task item: For MOLT-4 leukemia, provide TGI of "Nc1c2ccccc2nc2nccnc12" please.
Reply: > 100 µM

====

- Tested on: OVCAR-3 ovarian
- assay.summary: NCI tumour cell line growth inhibition, 48 h
Readings of TGI for the listed compounds

Sample answers from the record:
Nc1ccc(N=Nc2ccc(-c3ccc(N=Nc4c(S(=O)(=O)O)cc5cc(S(=O)(=O)O)c(N=Nc6ccc([N+](=O)[O-])cc6)c(N)c5c4O)cc3)cc2)c2cc(S(=O)(=O)O)ccc12 ... > 100 µM
Cl.Fc1c[c-]c(-c2ccccn2)c(F)c1.[Pt].c1ccc([PH+](c2ccccc2)c2ccccc2[PH+](c2ccccc2)c2ccccc2)cc1 ... 0.211 µM
COc1cccc(Nc2ncnn3ccc(CN4CC[C@@H](N)[C@H](O)C4)c23)c1 ... > 60.8 µM
CC(=O)c1cc2sc3ccccc3c2[nH]1 ... > 100 µM
CN(CCNc1ccc(C(=N)N)cc1)c1ccc(C(=N)N)cc1 ... > 100 µM
O=C(Nn1c(-c2ccccc2)nc2ccccc2c1=O)c1ccc([N+](=O)[O-])cc1 ... > 100 µM

Task item: Quick check: TGI of "CNC(=S)N/N=C(\C)c1cc(OC)c(OC)cc1O" ?
Reply: > 100 µM

Task item: Do the same for COc1ccc2c(c1)OC(N)=C(C#N)C2c1ccc(F)c(F)c1 (centres undefined) please
Reply: 3.4 µM

Task item: What would you report for "CCOc1ccc(-n2c(=O)c3nn4c(=O)n(-c5ccc(OCC)cc5)c(=O)c4nn3c2=O)cc1" ?
Reply: > 100 µM

====

- Tested on: SK-MEL-28 melanoma
- assay.summary: NCI tumour cell line growth inhibition, 48 h
property.label: TGI

O=c1cc(CN2CCCCC2)[nH]c2c1ccc1nc(CN3CCCCC3)cc(=O)n12 ... > 100 µM
O=C1CNC(=O)N1 ... > 1120 µM
COc1cc(/C=C(\C)c2ccc3c(c2)OCO3)cc(OC)c1OC ... > 100 µM

Task item: Can you look up the measured TGI of CCCCCCCCOP(=O)(O)OP(=O)(O)OCC1OC(n2ccc(N)nc2=O)C(O)C1O (stereo unspecified) for me?
Reply: > 100 µM

Task item: Check "COc1ccc(-c2cc(=O)c3cc4c(cc3[nH]2)OCO4)c(OC)c1" too.
Reply: > 100 µM

====

- Tested on: K-562 leukemia
- assay.summary: NCI tumour cell line growth inhibition, 48 h
property.label: TGI

O=C([CH-]C(=O)c1ccccc1)c1ccccc1.O=C([CH-]C(=O)c1ccccc1)c1ccccc1.[CH2-]CCC.[CH2-]CCC.[Sn+4] ... 0.746 µM

Task item: Item under review: "C=CC(C)(C)c1c(OC)oc2ccc(OC)c(C)c2c1=O" . Reported TGI?
Reply: > 100 µM

Task item: Can you check "Nc1ccc(N=Nc2ccc(-c3ccc(N=Nc4c(S(=O)(=O)O)cc5cc(S(=O)(=O)O)c(N=Nc6ccc([N+](=O)[O-])cc6)c(N)c5c4O)cc3)cc2)c2cc(S(=O)(=O)O)ccc12" next?
Reply: > 100 µM

Task item: Try this compound too: "Brc1ccc(N=C/C=C(\Nc2ccc(Br)cc2)C23CC4CC(CC(C4)C2)C3)cc1"
Reply: > 67 µM

====

- System: PC-3 prostate
- assay.summary: NCI tumour cell line growth inhibition, 48 h
property.label: TGI

Completed entries (count: 5):
CC1NC(=O)c2c(-c3ccccc3)nn(-c3ccccc3)c2NC1=O (stereo not given) ... > 100 µM
CCOC(=O)C(=O)N=Nc1c(O)[nH]c2ccccc12 ... > 100 µM
CC(Cc1ccc(O)cn1)(NC(=O)c1ccccc1)C(=O)O (stereo not given) ... > 100 µM
COc1ccccc1NC(=S)NNC(=O)c1cc(-c2ccccc2)nc2ccccc12 ... 49.3 µM
COc1cc(S(=O)(=O)Nc2ccc(-c3csc(/N=C\c4ccccc4O)n3)cc2)ccc1Cl ... > 100 µM

Task item: Any idea what its TGI is? The molecule is c1ccc(C2C3=C(c4ccccc4CC3)N3c4cc5nc6ccccc6nc5cc4NC34CCCCC24)cc1 (stereo not given)
Reply: > 10 µM

Task item: Query CN1CCC2(CC1)C(=O)N(NC(N)=O)C(=O)C2c1ccccc1 (stereo not given) next
Reply: > 100 µM

Task item: Lookup "COc1c(O)cc2c(c1CC=C(C)C)OC(=O)c1c(cc(O)c(CC=C(C)C)c1O)O2"
Reply: 9.7 µM

Task item: One more molecule: "NNC(=S)N/N=C/c1ccccn1"
Reply: > 100 µM

Task item: And "Fc1cc(C2=Nn3c(nnc3-c3cc(F)c(Cl)cc3Cl)SC2)c(Cl)cc1Cl" ?
Reply: > 100 µM

====

Reported GI50 values follow for various compounds
- Test system: MCF7 breast
- assay.summary: NCI tumour cell line growth inhibition, 48 h

Cc1cc(S(=O)(=O)Nc2n[nH]c(-c3ccc(Cl)cc3)c2C#N)c(S)cc1Cl ... > 100 µM

Now take the following compound into account.
Task item: Suppose we examine the compound "COc1ccc(-c2nc(Nc3ccc(F)cc3)nc(Nc3ccc4c(c3)nc(C)n4Cc3ccccc3)n2)cc1" ; what GI50 value has been reported?
Reply: 3.14 µM

====

- Test system: A549 NSCLC
- assay.summary: NCI tumour cell line growth inhibition, 48 h
A collection of compounds and their measured TGI

Use the examples below as a reference point.
CCOC(=O)c1csc(NC(=O)CCN2CCOCC2)n1 ... > 100 µM
S=c1sc2sc(=S)sc2s1 ... > 100 µM
Cc1ccc(S(=O)(=O)NN=C2C(C)CC(C(C)(C)C)CC2C)cc1 (centres undefined) ... 32.7 µM
COc1cc(Br)cc2c1O[C@H]1C(=O)CC3CC21CCN3C (some centres undefined) ... > 100 µM
CC1=N/C(=C\c2ccc(N)cc2)C(=O)N1Nc1nnc(NN2C(=O)/C(=C/c3ccc(N)cc3)N=C2C)c2ccccc12 ... > 100 µM
CC1OC(n2ccc3ccc([N+](=O)[O-])cc32)C(O)C(O)C1O (centres undefined) ... > 100 µM
Cc1cc(C)c2c(=O)cc(-c3ccccc3)[nH]c2c1 ... 29.1 µM
O=C(CSc1nc2ccc([N+](=O)[O-])cc2[nH]1)Nc1ccc([N+](=O)[O-])cc1 ... 14.2 µM

Task item: Look up TGI for this compound: "COc1cc2c(OC)c3cc(C)oc(=O)c3c(O)c2c(O)c1-c1c(OC)cc2c(OC)c3cc(C)oc(=O)c3c(O)c2c1O"
Reply: 38.9 µM

====

- System: NCI-H226 lung
- assay.summary: NCI tumour cell line growth inhibition, 48 h
Form field: GI50 (one value per entry).

Task item: What reported GI50 corresponds to "O=C(CSc1nc2ccc([N+](=O)[O-])cc2[nH]1)Nc1ccc([N+](=O)[O-])cc1" on NCI-H226 lung?
Reply: 2 µM

Task item: Another molecule: "O=C(NCCCNc1cc(-c2cn(-c3ccccc3)nc2-c2cccc(O)c2)ccn1)c1ccc(F)cc1"
Reply: 3.7 µM

Task item: "CN1CCN(C(=O)OCc2nc3c(N4CCOCC4)nc(-c4ccccc4)nc3n2C)CC1" , same question.
Reply: 1.61 µM

Task item: Subsequent entry: "CC(C)[C@]12O[C@H]1[C@@H]1O[C@]13[C@]1(O[C@H]1C[C@H]1C4=C(CC[C@@]13C)C(=O)OC4)[C@@H]2OC(=O)OC(C)(C)C"
Reply: < 0.0143 µM

Task item: Repeat for the following molecule: "CN(CCNc1ccc(C(=N)N)cc1)c1ccc(C(=N)N)cc1"
Reply: 3.81 µM

Task item: Proceed to "CC1(C)CC[C@]2(CO)CC[C@]3(C)C(=CC[C@@H]4[C@@]5(C)CC[C@H](NCO)C(C)(C)[C@@H]5CC[C@]43C)[C@@H]2C1"
Reply: 2.26 µM

Task item: Continue with "NNC(=S)N/N=C/c1ccccn1"
Reply: 2.41 µM

Task item: Entry "N#C/C(=C\c1ccc([N+](=O)[O-])cc1)n1nnc2cc(F)c(F)cc21" please
Reply: 1.97 µM

Task item: What would you report for COc1ccc2c(c1)OC(N)=C(C#N)C2c1ccc(F)c(F)c1 (centres undefined) ?
Reply: 19.2 µM
